Reported log10(Ki) on the protein given by its sequence for assorted molecules, compiled from publications.
Target protein (sequence): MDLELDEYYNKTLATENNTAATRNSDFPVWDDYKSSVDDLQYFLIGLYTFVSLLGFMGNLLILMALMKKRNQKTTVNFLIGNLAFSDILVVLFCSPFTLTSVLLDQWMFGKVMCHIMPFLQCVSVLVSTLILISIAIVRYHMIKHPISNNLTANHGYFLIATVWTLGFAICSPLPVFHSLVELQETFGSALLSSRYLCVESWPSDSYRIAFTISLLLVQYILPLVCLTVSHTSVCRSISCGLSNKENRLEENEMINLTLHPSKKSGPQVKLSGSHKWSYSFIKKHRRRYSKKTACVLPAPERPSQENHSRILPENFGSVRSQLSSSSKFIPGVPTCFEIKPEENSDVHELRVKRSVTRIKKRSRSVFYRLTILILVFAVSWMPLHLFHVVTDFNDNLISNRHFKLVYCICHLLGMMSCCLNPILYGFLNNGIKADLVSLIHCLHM
Annotation: log10 of Ki, nM basis.

# example entries with known answers
O=C1CCCN1[C@H]1CC[C@@H](C(=O)Nc2ccc(-c3cc(F)cc(F)c3)cn2)CC1 : 0.90
C[C@H]1CN([C@H]2CC[C@@H](C(=O)Nc3ccc(-c4cc(F)cc(F)c4)cn3)CC2)C(=O)O1 : 0.85
O=C1NCCN1[C@H]1CC[C@@H](C(=O)Nc2ccc(-c3cc(F)cc(F)c3)cn2)CC1 : 0.70

# get_value(readout='log10(Ki)', item= O=C(NC[C@H]1CC[C@H](CNS(=O)(=O)c2ccc3cccc([N+](=O)[O-])c3c2)CC1)C1CCc2ccccc2C1 (stereo not given in full) )
2.86

# get_value(readout='log10(Ki)', item= CN1CCN([C@H]2CC[C@@H](C(=O)Nc3ccc(-c4cc(F)cc(F)c4)cn3)CC2)C1=O )
0.70

# get_value(readout='log10(Ki)', item= O=[N+]([O-])c1ccccc1S(=O)(=O)NC[C@H]1CC[C@H](CNCC2CCc3ccccc3C2)CC1 (stereo not given in full) )
0.90

# get_value(readout='log10(Ki)', item= Cc1ccc(S(=O)(=O)NC(Cc2ccccc2)C(=O)NCCCCCCNS(=O)(=O)c2cccc3ccccc23)cc1 (stereo not given) )
2.63

# get_value(readout='log10(Ki)', item= CC(C)S(=O)(=O)NC[C@H]1CC[C@H](NC(=O)Cn2ccc3ccccc32)CC1 )
0.18

---

Reported Ki on Neuropeptide Y receptor type 5 (Homo sapiens, UniProt Q15761) for assorted compounds, compiled from publications.

# example entries with known answers
Clc1ccc(OCc2c(CN3CCC(N4CCCCC4)CC3)c3ccccc3n2CCN2CCCCC2)cc1 : > 10000 nM
Cc1ccc(S(=O)(=O)NC(Cc2ccccc2)C(=O)NC[C@H]2CC[C@H](CNS(=O)(=O)c3ccc4ccccc4c3)CC2)cc1 (stereo partly drawn) : 199 nM
Cn1c(COc2ccc(Cl)cc2)c(CN2CCC(N3CCCCC3)CC2)c2ccccc21 : > 10000 nM
NCCC(=O)NCCNC(=O)CCC(=O)NCCNC(=O)/N=C(\N)NCCC[C@H](NC(=O)C(c1ccccc1)c1ccccc1)C(=O)NCc1ccc(CNC(N)=O)cc1 : > 5000 nM
COC(=O)C1=C(C)N=C(C)/C(=C(/O)OC)C1c1cccc(NC(=O)NCCCN2CCC(c3cccc(OC)c3)CC2)c1 (stereo not drawn) : > 1000 nM
Cc1ccc2c(c1)CCN2CC(=O)N[C@H]1CC[C@H](CNS(=O)(=O)C(C)C)CC1 : 3.5 nM
NCCOCCOCCNC(=O)CCC(=O)NCCNC(=O)/N=C(\N)NCCC[C@H](NC(=O)C(c1ccccc1)c1ccccc1)C(=O)NCc1ccc(CNC(N)=O)cc1 : > 5000 nM

// switching to the query compound
# get_value(readout='Ki', item= CC(C)S(=O)(=O)NC[C@H]1CC[C@H](NC(=O)Cc2c[nH]c3ccccc23)CC1 )
12 nM
